Biological target: T1, human PD-1 protein (human, UniProt Q15116 25-167, limits assumed)
T1 construct: also called human PD-1 antigen
T1 sequence (Q15116 25-167 limits assumed): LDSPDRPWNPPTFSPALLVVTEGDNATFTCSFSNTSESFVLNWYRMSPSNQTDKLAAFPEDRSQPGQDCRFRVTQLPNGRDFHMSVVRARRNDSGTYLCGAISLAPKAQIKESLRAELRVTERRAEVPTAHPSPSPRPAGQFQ
Test: SPR; ratio against the U299-WT parent

binder	Ratio (kD)
AHF16559 (antibody, V domains shown) VH: QVQLVQSGAEVKKPGASVKVSCKASGYTFTGYWMHWVRQAPGQGLEWIGMIHPNSDTTVYNEKFKNRVTMTRDTSISTAYMELSRLRSDDTAVYYCAGTDQAAWHAFWGQGTTVTVSS VL: DIVMTQTPLSLSVTPGQPASISCRSSQNIVHSQGDTYLEWYLQKPGQSPQLLIYKVSKRFSGVPDRFSGSGSGTDFTLKISRVEAEDVGVYYCFQGSHVPWTFGGGTKVEIK	6.06
AHF16560 (antibody, V domains shown) VH: QVQLVQSGAEVKKPGASVKVSCKASGYTFTGYWMHWVRQAPGQGLEWIGMIHPNSDTTIYNEKFKNRVTMTRDTSISTAYMELSRLRSDDTAVYYCAGTDQEAWHGFWGQGTTVTVSS VL: DIVMTQTPLSLSVTPGQPASISCRSSQNIVRSQGDTYLEWYLQKPGQSPQLLIYKVSKRFSGVPDRFSGSGSGTDFTLKISRVEAEDVGVYYCFQGSHVPWTFGGGTKVEIK	6.8
AHF16570 (antibody, V domains shown) VH: QVQLVQSGAEVKKPGASVKVSCKASGYTFTGYWMHWVRQAPGQGLEWIGMIHPNSDTTIYNWKFKNRVTMTRDTSISTAYMELSRLRSDDTAVYYCAGTDQAAWAGFWGQGTTVTVSS VL: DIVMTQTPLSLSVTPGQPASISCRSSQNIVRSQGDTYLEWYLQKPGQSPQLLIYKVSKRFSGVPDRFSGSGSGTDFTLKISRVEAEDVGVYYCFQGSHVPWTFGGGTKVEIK	11.2
